- System tested: T1, Cre recombinase monomer with Y324F mutation
- T1 chain: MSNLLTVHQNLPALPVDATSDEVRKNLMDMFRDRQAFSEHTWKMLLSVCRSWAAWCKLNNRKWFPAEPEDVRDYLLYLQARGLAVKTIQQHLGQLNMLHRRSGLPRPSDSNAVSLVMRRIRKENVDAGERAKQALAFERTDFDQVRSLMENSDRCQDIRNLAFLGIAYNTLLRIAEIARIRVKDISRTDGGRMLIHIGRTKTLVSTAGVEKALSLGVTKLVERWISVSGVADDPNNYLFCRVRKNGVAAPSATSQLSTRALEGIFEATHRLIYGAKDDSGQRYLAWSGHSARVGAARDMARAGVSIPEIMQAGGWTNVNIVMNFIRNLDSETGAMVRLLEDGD
Listed here: items and their measured Median dimer activity (recombination on loxP).
Numeric only. Scale: %

Some solved entries appear below for comparison.
Entry Cre recombinase monomer with K201V mutation (protein) MSNLLTVHQNLPALPVDATSDEVRKNLMDMFRDRQAFSEHTWKMLLSVCRSWAAWCKLNNRKWFPAEPEDVRDYLLYLQARGLAVKTIQQHLGQLNMLHRRSGLPRPSDSNAVSLVMRRIRKENVDAGERAKQALAFERTDFDQVRSLMENSDRCQDIRNLAFLGIAYNTLLRIAEIARIRVKDISRTDGGRMLIHIGRTVTLVSTAGVEKALSLGVTKLVERWISVSGVADDPNNYLFCRVRKNGVAAPSATSQLSTRALEGIFEATHRLIYGAKDDSGQRYLAWSGHSARVGAARDMARAGVSIPEIMQAGGWTNVNIVMNYIRNLDSETGAMVRLLEDGD needs its Median dimer activity (recombination on loxP) filled in; supply it. 48

Hello, please tell me recorded Median dimer activity (recombination on loxP) for this one: Cre recombinase monomer with Q311R mutation (protein) MSNLLTVHQNLPALPVDATSDEVRKNLMDMFRDRQAFSEHTWKMLLSVCRSWAAWCKLNNRKWFPAEPEDVRDYLLYLQARGLAVKTIQQHLGQLNMLHRRSGLPRPSDSNAVSLVMRRIRKENVDAGERAKQALAFERTDFDQVRSLMENSDRCQDIRNLAFLGIAYNTLLRIAEIARIRVKDISRTDGGRMLIHIGRTKTLVSTAGVEKALSLGVTKLVERWISVSGVADDPNNYLFCRVRKNGVAAPSATSQLSTRALEGIFEATHRLIYGAKDDSGQRYLAWSGHSARVGAARDMARAGVSIPEIMRAGGWTNVNIVMNYIRNLDSETGAMVRLLEDGD 95

New cases:
Return Median dimer activity (recombination on loxP) (reported value) for this protein: Cre recombinase monomer with K201F mutation (protein) MSNLLTVHQNLPALPVDATSDEVRKNLMDMFRDRQAFSEHTWKMLLSVCRSWAAWCKLNNRKWFPAEPEDVRDYLLYLQARGLAVKTIQQHLGQLNMLHRRSGLPRPSDSNAVSLVMRRIRKENVDAGERAKQALAFERTDFDQVRSLMENSDRCQDIRNLAFLGIAYNTLLRIAEIARIRVKDISRTDGGRMLIHIGRTFTLVSTAGVEKALSLGVTKLVERWISVSGVADDPNNYLFCRVRKNGVAAPSATSQLSTRALEGIFEATHRLIYGAKDDSGQRYLAWSGHSARVGAARDMARAGVSIPEIMQAGGWTNVNIVMNYIRNLDSETGAMVRLLEDGD 54
